Documented logP across a set of compounds

Compound	logP
CCC(C)CC	2.8
C1CCCCCCC1	3.28

###

Molecule	logP
CCC(C)C1(CC)C(=O)NC(=O)NC1=O (stereo unspecified)	1.58

###

Documented logP across a set of compounds

Compound	logP
Clc1cc2c(Cl)c(Cl)c(Cl)c(Cl)c2cc1Cl	6.77
Clc1cc2c(Cl)ccc(Cl)c2c(Cl)c1Cl	6.46

###

Compound	logP
Clc1cc(Cl)cc(C2(CC(Cl)(Cl)Cl)CO2)c1 (stereo unspecified)	4.34

###

Measure Name: logP

Compound	Meas Value
Cc1ccc(Cl)c(NS(=O)(=O)c2nc(C)n(-c3ncccn3)n2)c1Cl	3
CCCc1nc(S(=O)(=O)Nc2c(F)cccc2F)nn1-c1ccccc1	4.2

###

Documented logP across a set of compounds
assay: method code …, from Wiggins, H.; Karcher, A.; Michael Wilson, J.; Robb, I. (2008). Determining Octanol/Water Partitioning Coefficients for Industrial Surfactants. Proc. 15th Annual International Petroleum & Biofuels …
Measure Name: logP

Compound	Measure Name	Meas Value
CCCCCCCCCCCCOCCOCCOCCOCCOCCOCCO	logP	4.81
CCCCCCCCOCCOCCOCCOCCO	logP	2.68

###

assay: method code SF, from Zheng, Y.; Wu, F.; Li, Y. (2001). Determination of ionization constant and partition coefficient of monoxidine. Journal of Shenyang Pharmaceutical University, 18(1)37-39.
Measure Name: logP

Compound	Meas Value
COc1nc(C)nc(Cl)c1NC1=NCCN1	1.08

###

test: method code SF-AS, from DOI: 10.1016/s0022-5347(24)07568-2, PMID: 4149453; settings: pH 7.5
Documented logD across a set of compounds

Compound	logD
CCOC(=O)CC[C@H](NC(=O)c1ccc(N(C)Cc2cnc3nc(N)nc(N)c3n2)cc1)C(=O)OCC	0.98
COC(=O)CC[C@H](NC(=O)c1cc(Cl)c(N(C)Cc2cnc3nc(N)nc(N)c3n2)c(Cl)c1)C(=O)OC	1.69

###

Compound	logP
COCCc1ccc(O)cc1	1.85
Oc1ccc(CCOCC2CC2)cc1	3

###

Compound	logP
CCCOc1ccc(O)cc1	2.31

###

assay: method code SF-AS, from DOI: 10.1016/s0022-3565(25)38749-5, PMID: 8182532; settings: pH 7.4

Compound	logD
CC(C)CCC(=O)CC1c2ccccc2C(=O)N1c1ccc2ccc(Cl)nc2n1 (configuration not stated)	4.8
CCCCCCCCCCOc1ccc(C(=O)Nc2cc(C(=O)NCCCC)ccc2SC)cc1	5.2

###

assay: method code SF, from DOI: 10.1016/s0960-894x(01)80459-5

Molecule	logP
CCCCCCCCCCCCCCCCOP(=O)(OCC1CC(O)C(n2cnc3c(N)ncnc32)O1)OCC1OC(n2cc(C)c(=O)[nH]c2=O)CC1N=[N+]=[N-] (configuration not stated)	3.26
Nc1ncnc2c1ncn2[C@@H]1O[C@H](CO)C[C@H]1O	-0.65

###

Documented logP across a set of compounds
assay: method code SF-HPLC, from DOI: 10.1016/s0021-9673(01)88640-4

Compound	logP
N#CN=[N+]([O-])c1cccc2ccccc12	3.17
N#CN=[N+]([O-])c1ccnc2ccccc12	2.07
N#CN=[N+]([O-])c1ccccn1	0.53
N#CN=[N+]([O-])c1cc[n+]([O-])c2ccccc12	1.12
N#CN=[N+]([O-])c1ncccn1	-0.31
N#CN=[N+]([O-])c1cc[n+]([O-])cc1	-0.41
